All values here come from PubChem BioAssay.

Experiment: binders from COS7 lysate, DM2A8 probe, primary screen, torsin A project, cell lysate, small-molecule microarray, fluorescence 635/667 (AID 1065)
Details: higher = more signal, COS7 lysate expressing mutant human TOR1A
measure: composite z-score

Problem: For the compound shown here, COC(=O)[C@H](C)NC(=O)CCC1CC(OC(=O)NCc2ccc3c(c2)OCO3)CC2(CCCC(COC(=O)NCc3ccccc3)O2)O1 (some centres not stated) , give the reported composite z-score.
Result: 0.0374

Problem: For the compound shown here, COC(=O)CC=C[C@@H](C)[C@@H](C=NOC[C@@H](O)[C@H]1O[C@@H]2OC(C)(C)O[C@@H]2[C@H]1O)OC , give the reported composite z-score.
Result: 0.937

Problem: For the compound shown here, CCOC(=O)[C@H](CC(C)C)NC(=O)CCC1CC(OC(=O)NCCc2ccc(F)cc2)CC2(CCCC(COC(=O)NCCCN3CCCC3=O)O2)O1 (some centres not stated) , give the reported composite z-score.
Result: -0.0261

Problem: For the compound shown here, CCOC(=O)[C@H](CC(C)C)NC(=O)CCC1CC(OC(=O)NCCc2ccc(F)cc2)CC2(CCCC(COC(=O)NCc3cccc(C(F)(F)F)c3)O2)O1 (some centres not stated) , give the reported composite z-score.
Result: 0.13

Problem: For the compound shown here, CC(=O)OC[C@H]1O[C@H](CC=NOC[C@@H](O)[C@H]2O[C@@H]3OC(C)(C)O[C@@H]3[C@H]2O)C=C[C@@H]1OC(C)=O , give the reported composite z-score.
Result: -0.487

Problem: For the compound shown here, COC(=O)[C@H](C)NC(=O)CC=C[C@@H](C)[C@@H]1C=C[C@H](O)[C@@H](CO)O1 , give the reported composite z-score.
Result: 0.677

Problem: For the compound shown here, COC(=O)[C@H](C)NC(=O)CCC1CC(OC(=O)NCCc2ccc(F)cc2)CC2(CCCC(COC(=O)NCCc3ccccc3OC)O2)O1 (some centres not stated) , give the reported composite z-score.
Result: -0.328
